# maps each entry to its koff
- target: T1, Peptide-biotin
- T1 construct: also called antigen
- T1 sequence (Q8TD43 other isoform, or with tags, fused parts or gaps): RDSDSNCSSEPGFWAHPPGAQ
- methodNotes: SPR Biacore 8K affinity ranking; antibody Fc-captured, Peptide-biotin analyte, 1:1 fit
State just the number; it will be interpreted in s⁻¹.

For orientation, consider the following solved cases.
binder | koff / s⁻¹
humanized anti-TRPM4 antibody clone A4 (VH1 + VL3) (antibody, V domains shown, Full-length IgG, IgG1 heavy chain; also called VH1 + VL3 (A4)) VH: QVQLQESGPGLVKPSQTLSLTCTVSGYSITSDYAWNWIRQHPGKGLEWIGYLSYSGVTSYNPSLKGRVTISVDTSKNQFSLKLSSVTAADTAVYYCARKGTYYRYEGSYWYFDVWGQGTTVTVSS VL: DIQMTQSPSSLSASVGDRVTITCHANQNIDVWLSWYQQKPGNAPKLLIYKTSNLHTGVPSRFSGSGSGTDFTFTISSLQPEDIATYYCQQGQSYPLTFGGGTKLEIKR | 0.00177
humanized anti-TRPM4 antibody VH3 + VL4 (antibody, V domains shown, Full-length IgG) VH: QVQLQESGPGLVKPSQTLSLTCTVSGYSITSDYAWNWIRQHPGKGLQWMGYLSYSGVTSYNPSLKGRITISRDTSKNQFSLKLSSVTAADTAVYYCARKGTYYRYEGSYWYFDVWGQGTTVTVSS VL: DIQMTQSPSSLSASVGDRVTITCHANQNIDVWLSWYQQKPGNAPKLLIYKTSNLHTGVPSRFSGSGSGTDFTLTISSLQPEDIATYYCQQGQSYPLTFGGGTKLEIKR | 0.00135
humanized anti-TRPM4 antibody VH4 + VL2 (antibody, V domains shown, Full-length IgG) VH: QVQLQESGPGLVKPSQTLSLTCTVSGYSITSDYAWNWIRQHPGKGLQWMGYLSYSGVTSYNPSLKGRITISRDTSKNQFFLKLSSVTAADTAVYYCARKGTYYRYEGSYWYFDVWGQGTTVTVSS VL: DIQMTQSPSSLSASVGDRVTITCHANQNIDVWLSWYQQKPGKAPKLLIYKTSNLHTGVPSRFSGSGSGTDFTLTISSLQPEDIATYYCQQGQSYPLTFGGGTKLEIKR | 0.00132

Switching to the query record.
INPUT: Tell me its koff given humanized anti-TRPM4 antibody VH4 + VL4 (antibody, V domains shown, Full-length IgG) VH: QVQLQESGPGLVKPSQTLSLTCTVSGYSITSDYAWNWIRQHPGKGLQWMGYLSYSGVTSYNPSLKGRITISRDTSKNQFFLKLSSVTAADTAVYYCARKGTYYRYEGSYWYFDVWGQGTTVTVSS VL: DIQMTQSPSSLSASVGDRVTITCHANQNIDVWLSWYQQKPGNAPKLLIYKTSNLHTGVPSRFSGSGSGTDFTLTISSLQPEDIATYYCQQGQSYPLTFGGGTKLEIKR as the entry.
OUTPUT: 0.00201
